B1: CPEB3 Ribozyme (parent)
chain: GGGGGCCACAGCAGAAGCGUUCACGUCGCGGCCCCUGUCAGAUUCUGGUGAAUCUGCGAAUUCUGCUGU

Variants of: B1
Experimental protocol: self-cleavage, relative activity (ratio to wild type); higher = more cleavage; co-transcriptional
Record form. Attribute: self-cleavage. Fill in for each entry.
Answers are plain numbers.

State recorded self-cleavage for all listed variants.
1. GGGUGCCACAGCAGAAGCGUUCACGUCGCGGCCCCUGUCAGAUUCUGCUGAAUCUGCGAAUUCUGCUGU [G4U G48C]
2. GGGGGCCACAGCAGAAGCGUUCACGUUGCGGCCCCUGUCAGAUUCUGUUGAAUCUGCGAAUUCUGCUGU [C27U G48U]
3. GGGGGCCACAGCAGAAGCGUUCACGUCGCGGCCCCUGUCAGAUUCUGGUGAAUCUGGGAAUUCUGCUGA [C57G U69A]
4. GGGGGCCACAGCAGAAGCGUUCACGUCGCGGCCCCUGUCAGAUUCUGGUGAAUCUACGAAUUCCGCUGU [G56A U64C]
5. GGGGGCCACAGCAGAAGCGUUCACGUCGCGGCCCCUGUCAUAUCCUGGUGAAUCUGCGAAUUCUGCUGU [G41U U44C]
6. GGGGGCCACAGCAGAAGCGUUCACGUCGCGGCCCCUGUCAGAUACUGGUGAAUCUGCGAAUUGUGCUGU [U44A C63G]
7. GGGGGCCACAGCAUAAGCGUUCACGUCGCGGCCCCUGUCAGAAUCUGGUGAAUCUGCGAAUUCUGCUGU [G14U U43A]
8. GGGGGCCACAGCAUAAGCGUUCACGUCGCGGCCCAUGUCAGAUUCUGGUGAAUCUGCGAAUUCUGCUGU [G14U C35A]

0.752
0.504
0.381
0.777
0.366
0.645
0.321
0.257

State recorded self-cleavage for all listed variants.
1. GGUGGCCAAAGCAGAAGCGUUCACGUCGCGGCCCCUGUCAGAUUCUGGUGAAUCUGCGAAUUCUGCUGU [G3U C9A]
2. GGGGGCCACAGCAGAAGCGUUCACGUCGCGGCCCCUGUCAGAAUCUGGUGAAUCUGCGAAGUCUGCUGU [U43A U61G]
3. GGGGGCCACAGCAGAAGCGUUCACGUCGCGGCCCCUGUCAGAUUCUGUUGAAUCUGCGAAUUCUGGUGU [G48U C66G]
4. GGGGGCCACAGCAGAAGCGUUCACGUCGCGGCCCCUGUCAGAUUGUGGUGAAUCUGCGAAUUCAGCUGU [C45G U64A]
5. GGGCGCCACAGCAGAAGCGUUCACGUCGCGGCCCCUGUCAGAUUCUGGUGAAUCUGCGAAUUCUGCUGC [G4C U69C]

0.655
0.485
0.937
0.908
0.958

State recorded self-cleavage for all listed variants.
1. GGGGGCCACAGCAGAAGCGUUCACGUCGCGGCCCCUGUCAGAUUCUGGUGACUCUGCGUAUUCUGCUGU [A52C A59U]
2. GGGGGCCACAGCAGAAGCUUUCACGUCGCGGUCCCUGUCAGAUUCUGGUGAAUCUGCGAAUUCUGCUGU [G19U C32U]
3. GUGGGCCACACCAGAAGCGUUCACGUCGCGGCCCCUGUCAGAUUCUGGUGAAUCUGCGAAUUCUGCUGU [G2U G11C]
4. GGGGGCCACAGCAGAAGCGUUGACGUCGCGGCGCCUGUCAGAUUCUGGUGAAUCUGCGAAUUCUGCUGU [C22G C33G]
5. GGGGGCCACAGCAGAACCGUUCACGUCGCGGCCCCUGUCAGAUUCUUGUGAAUCUGCGAAUUCUGCUGU [G17C G47U]

0.68
0.55
0.0923
0.216
0.149
